Recorded protein stability index values for a group of variants are listed next.
B1: SLC19A2 (parent)
chain: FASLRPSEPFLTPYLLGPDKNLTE

- Variants of: B1
- assay info: protein stability index of a GFP-peptide fusion (GPS, HEK-293T) (PSI 1-6); higher = more stable;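 note: lentivirally expressed fusions sorted by FACS into six bins by GFP to DsRed ratio, PSI derived from sequencing read proportions per bin multiplied by bin number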
- measurement parameters: c terminus: a fixed tail appended
Form field (numeric): enter value without unit.

Find the recorded protein stability index belonging to L16W and report it. 2.14

Look up protein stability index: L22G 2.04

Need protein stability index, item T23C 2.12

Entry under review: L4P . Reported protein stability index? 2.98

# lookup: protein stability index of L15I 1.99

Record request: protein stability index value, item F10M 2.35
